Reference source: patent US20030055065A1

- Target of assay: farnesyl protein transferase (FPT), partially purified from rat brain (Rattus norvegicus, UniProt Q02293+Q04631)
- Construct: were partially purified from rat brain by ammonium sulfate fractionation followed by Q-Sepharose
- Experiment: Inhibition of farnesyl protein transferase (transfer of [3H]farnesyl to Ras-CVLS)
- Type: biochemical
- Recorded conditions: Ras-CVLS farnesylation, partially purified rat brain FPT; read-out: FPT IC50
The following molecules are listed with their measured IC50 values.

Some entries whose results are on file:
{"Molecule": "O=C(Cc1ccncc1)N1CCC(C2c3ccc(Cl)cc3CCc3cc(Br)cnc32)CC1 (stereo not shown) [Example 400-E]", "Measurement name": "IC50", "Observed value": "0.04 µM"}
{"Molecule": "O=C(c1ccc([N+](=O)[O-])cc1)N1CCC(=C2c3ccc(Cl)cc3CCc3cccnc32)CC1 [Example 10]", "Measurement name": "IC50", "Observed value": "4.3 µM"}
{"Molecule": "CN(C)c1cc(C(=O)N2CCC(=C3c4ccc(Cl)cc4CCc4cccnc43)CC2)ccn1 [Example 110]", "Measurement name": "IC50", "Observed value": "8.3 µM"}

Field: next molecule
Please give the measured IC50 for this molecule: O=C(c1ccco1)N1CCC(=C2c3ccc(Cl)cc3CCc3cccnc32)CC1 [Example 52] 4.9 µM

====

- Target of assay: geranylgeranyl protein transferase (GGPT) I (Rattus norvegicus, UniProt P53610+Q04631)
- Construct: were partially purified from rat brain by ammonium sulfate fractionation followed by Q-Sepharose
- Experiment: Inhibition of geranylgeranyl protein transferase I (Ras-CVLL as acceptor)
- Type: biochemical
- Recorded conditions: (36) μM
The following molecules are listed with their measured GGPT inhibition at the concentration in parentheses values.

Some entries whose results are on file:
{"Molecule": "CN1CCC(CC(=O)N2CCC(=C3c4ccc(Cl)cc4CCc4cc(Br)cnc43)CC2)CC1 [Example 400-H]", "Observed value": "0 (36)"}
{"Molecule": "CN1CCC(CC(=O)N2CCC(C3c4ccc(Cl)cc4CCc4cc(Br)cnc43)CC2)CC1 (stereo not shown) [Example 400-J]", "Observed value": "6 (36)"}
{"Molecule": "O=C(Cc1ccncc1)N1CCC(=C2c3ccc(Cl)cc3CCc3cc(I)cnc32)CC1 [Example 400]", "Observed value": "29 (36)"}

Field: next molecule
Please give the measured GGPT inhibition at the concentration in parentheses for this molecule: O=C(Cc1cc[n+]([O-])cc1)N1CCC(C2c3ccc(Cl)cc3CCc3cc(Br)cnc32)CC1 (stereo not shown) [Example 400-F] 0 (36)

====

- Target of assay: farnesyl protein transferase (FPT), partially purified from rat brain (Rattus norvegicus, UniProt Q02293+Q04631)
- Construct: were partially purified from rat brain by ammonium sulfate fractionation followed by Q-Sepharose
- Experiment: Inhibition of farnesyl protein transferase (transfer of [3H]farnesyl to Ras-CVLS)
- Assay type: biochemical
- Recorded conditions: Ras-CVLS farnesylation, partially purified rat brain FPT; read-out: FPT IC50
The following compounds are listed with their measured IC50 values.
Write the value in µM as a bare number.

{"Compound": "CCc1cc2c(cc1Cl)C=Cc1cccnc1C2C1CCN(C(=O)Cc2ccncc2)CC1 (stereo not shown)", "IC50 [µM]": 1.16}
{"Compound": "CS(=O)(=O)Nc1cnc2c(c1)CCc1cc(Cl)ccc1C2=C1CCN(C(=O)Cc2ccncc2)CC1", "IC50 [µM]": 4.6}

Please give the measured IC50 for this compound: O=C(Cc1cccnc1)N1CCC(=C2c3ccc(Cl)cc3CCc3cc(O)cnc32)CC1 3.12

Please give the measured IC50 for this compound: Nc1ccc(C(=O)N2CCC(=C3c4ccc(Cl)cc4CCc4cccnc43)CC2)cc1 5.9

====

The following molecules are listed with their measured IC50 values.
- Target of assay: farnesyl protein transferase (FPT), partially purified from rat brain (Rattus norvegicus, UniProt Q02293+Q04631)
- Construct: were partially purified from rat brain by ammonium sulfate fractionation followed by Q-Sepharose
- Experiment: Inhibition of farnesyl protein transferase (transfer of [3H]farnesyl to Ras-CVLS)
- Format: biochemical
- Recorded conditions: Ras-CVLS farnesylation, partially purified rat brain FPT; read-out: FPT IC50
Write the value in µM as a bare number.

Some entries whose results are on file:
{"Molecule": "CC1(C2CCN(C(=O)Cc3ccc[n+]([O-])c3)CC2)c2ccc(Cl)cc2CCc2cc(Br)cnc21 (centres unmarked)", "Unit annotation": "µM", "IC50": 0.052}
{"Molecule": "CC(C)(C)OC(=O)NCCSc1ccnc2c1CCc1cc(Cl)ccc1C2=C1CCN(C(=O)Cc2cccnc2)CC1", "Unit annotation": "µM", "IC50": 9.9}
{"Molecule": "O=C(Cc1ccc[n+]([O-])c1)N1CCC(C2c3ccc(Cl)cc3C=Cc3cc(Br)cnc32)CC1 (centres unmarked)", "Unit annotation": "µM", "IC50": 0.21}
{"Molecule": "O=C(Nc1cccnc1)N1CCN(C2c3ccc(Cl)cc3CCc3cc(Br)cnc32)CC1 (centres unmarked)", "Unit annotation": "µM", "IC50": 0.21}
{"Molecule": "O=C(Cc1cccs1)N1CCC(=C2c3ccc(Cl)cc3CCc3cccnc32)CC1", "Unit annotation": "µM", "IC50": 4.6}

Please give the measured IC50 for this molecule: O=C(Nc1cccnc1)N1CCC(C2c3ccccc3CCc3cccnc32)CC1 (centres unmarked) 5

Please give the measured IC50 for this molecule: CC(C)(C)OC(=O)N1CCC(CC(=O)N2CCN(C3c4ccc(Cl)cc4CCc4cccnc43)CC2)CC1 (centres unmarked) 7.4

Please give the measured IC50 for this molecule: O=C(Cc1cccnc1)N1CCC(=C2c3ccc(Cl)cc3CCc3cc(Br)cnc32)CC1 0.16

Please give the measured IC50 for this molecule: O=C(c1ccccn1)N1CCC(=C2c3ccc(Cl)cc3CCc3cccnc32)CC1 8

Please give the measured IC50 for this molecule: CC(=O)N(C)CCC(=O)N1CCC(=C2c3ccc(Cl)cc3CCc3cccnc32)CC1 10.3

Please give the measured IC50 for this molecule: CC(=O)N1CCC(=C2c3ccc(Cl)cc3CCc3c(Cl)cc[n+]([O-])c32)CC1 [Example 74C] 11.6

====

- Target of assay: farnesyl protein transferase (FPT), partially purified from rat brain (Rattus norvegicus, UniProt Q02293+Q04631)
- Construct: were partially purified from rat brain by ammonium sulfate fractionation followed by Q-Sepharose
- Experiment: Inhibition of farnesyl protein transferase (transfer of [3H]farnesyl to Ras-CVLS)
- Type: biochemical
- Recorded conditions: enzyme inhibition; read-out: FPT IC50
The following molecules are listed with their measured pIC50 values.
// pIC50 here means minus log10 of the molar concentration (mol/L)

{"Molecule": "CN1CCCC(CC(=O)N2CCN([C@H]3c4ccc(Cl)cc4CCc4cccnc43)CC2)C1 (stereo partly drawn)", "pIC50": 6.22}
{"Molecule": "N#Cc1cnc2c(c1)CCc1cc(Cl)ccc1C2=C1CCN(C(=O)Cc2ccncc2)CC1", "pIC50": 5.85}
{"Molecule": "O=C(Cc1cc[n+]([O-])cc1)N1CCC(=C2c3ccc(Cl)cc3C=Cc3cc(Br)cnc32)CC1", "pIC50": 6.85}
{"Molecule": "O=C(Nc1cc[n+]([O-])cc1)N1CCN(C2c3ccc(Cl)cc3CCc3cccnc32)CC1 (stereo not drawn)", "pIC50": 5.74}

Please give the measured pIC50 for this molecule: O=C(Cc1cc[n+]([O-])cc1)N1CCC(C2c3ccc(Cl)cc3C=Cc3cc(Br)cnc32)CC1 (stereo not drawn) 7.52

Please give the measured pIC50 for this molecule: O=C(Cc1cccnc1)N1CCC(=C2c3ccc(Cl)cc3CCc3cc(Cl)cnc32)CC1 6.24

====

- Target of assay: farnesyl protein transferase (FPT), partially purified from rat brain (Rattus norvegicus, UniProt Q02293+Q04631)
- Construct: were partially purified from rat brain by ammonium sulfate fractionation followed by Q-Sepharose
- Experiment: Inhibition of farnesyl protein transferase (transfer of [3H]farnesyl to Ras-CVLS)
- Format: biochemical
- Recorded conditions: enzyme inhibition; read-out: FPT IC50
pIC50: −log10 of the molar value.
Threshold rule: pIC50 greater than or equal to 6 is 1 (yes); below that, 0 (no).

{"Compound": "O=C(CN1CCS(=O)(=O)CC1)N1CCC(=C2c3ccc(Cl)cc3CCc3cc(Br)cnc32)CC1", "Classification": "1 (yes)"}
{"Compound": "O=C(Cc1cc[n+]([O-])cc1)N1CCC(=C2c3ccc(Cl)cc3CCc3cc(Cl)ccc32)CC1", "Classification": "1 (yes)"}
{"Compound": "O=C(Nc1cc[n+]([O-])cc1)N1CCC(=C2c3ccc(Cl)cc3CCc3cc(Cl)ccc32)CC1", "Classification": "0 (no)"}
{"Compound": "CNC(=O)N1CCCC(CC(=O)N2CCN(C3c4ccc(Cl)cc4CCc4cccnc43)CC2)C1 (stereo not shown)", "Classification": "0 (no)"}

Here is another compound to look at.
API: above_or_equal(metric=pIC50, cutoff=6) for item O=C(Nc1ccccc1)N1CCC(=C2c3ccc(Cl)cc3CCc3c(Cl)ccnc32)CC1 0 (no)
